Recorded pIC50 values for a group of compounds are listed next.
Subject Of Test: B*5401 (Homo sapiens, UniProt P01889, A329T/C349S/D138N/D201E/E176V/E187T/E204Q/E69G/I76V/K202T/L119W/R155S/R180L/S121T/S35A/S48A/V127L/V306I/V36M/Y140L)
Procedure Details: biochemical
pIC50: −log10 of the molar value.
Attribute Measured: pIC50

{"Compound": "CC[C@H](C)[C@H](NC(=O)[C@H](C)NC(=O)[C@@H]1CCCN1C(=O)[C@@H](N)CO)C(=O)N[C@@H](Cc1ccccc1)C(=O)N[C@@H](CCC(N)=O)C(=O)N[C@@H](CO)C(=O)N[C@@H](CO)C(=O)N[C@@H](CCSC)C(=O)O [15.081]", "Assay Value": 5.10}
{"Compound": "CC[C@H](C)[C@H](NC(=O)[C@@H](NC(=O)[C@H](CC(C)C)NC(=O)[C@H](CC(C)C)NC(=O)[C@H](CCSC)NC(=O)[C@H](C)NC(=O)[C@H](CCCCN)NC(=O)[C@@H]1CCCN1C(=O)[C@@H](N)CCSC)[C@@H](C)CC)C(=O)O", "Assay Value": 7.62}
{"Compound": "CC(C)C[C@H](NC(=O)[C@@H](NC(=O)[C@H](Cc1c[nH]c2ccccc12)NC(=O)[C@H](CCC(=O)O)NC(=O)[C@H](Cc1c[nH]cn1)NC(=O)[C@H](CC(C)C)NC(=O)[C@@H]1CCCN1C(=O)[C@@H]1CCCN1C(=O)[C@@H](N)Cc1ccc(O)cc1)C(C)C)C(=O)O [15.157]", "Assay Value": 5.34}
{"Compound": "CC(C)C[C@H](NC(=O)[C@@H](NC(=O)[C@H](CCCNC(=N)N)NC(=O)[C@@H]1CCCN1C(=O)[C@@H](N)CO)[C@@H](C)O)C(=O)N[C@@H](CC(N)=O)C(=O)N[C@@H](C)C(=O)N[C@@H](Cc1c[nH]c2ccccc12)C(=O)N[C@H](C(=O)O)C(C)C [15.071]", "Assay Value": 4.68}
{"Compound": "CSCC[C@H](NC(=O)[C@H](C)NC(=O)[C@H](C)NC(=O)[C@@H]1CCCN1C(=O)[C@@H](N)Cc1c[nH]cn1)C(=O)N1CCC[C@H]1C(=O)N[C@@H](Cc1c[nH]cn1)C(=O)N[C@@H](CC(C)C)C(=O)N[C@@H](CC(C)C)C(=O)O [15.036]", "Assay Value": 5.21}
{"Compound": "CC[C@H](C)[C@H](NC(=O)[C@H](Cc1ccc(O)cc1)NC(=O)[C@H](CC(C)C)NC(=O)[C@H](Cc1c[nH]cn1)NC(=O)CNC(=O)[C@@H](NC(=O)[C@@H]1CCCN1C(=O)[C@@H](N)CC(=O)O)[C@@H](C)CC)C(=O)N[C@@H](Cc1ccccc1)C(=O)N[C@@H](C)C(=O)O [16.201]", "Assay Value": 6.44}
{"Compound": "CC(C)C[C@H](NC(=O)[C@@H]1CCCN1C(=O)[C@H](CS)NC(=O)[C@H](CO)NC(=O)[C@@H]1CCCN1C(=O)[C@@H](N)CO)C(=O)N[C@@H](CCC(=O)O)C(=O)N[C@@H](CCCNC(=N)N)C(=O)N[C@@H](Cc1ccccc1)C(=O)N[C@@H](C)C(=O)O [16.202]", "Assay Value": 5.61}
{"Compound": "C[C@H](NC(=O)CNC(=O)[C@H](CCC(N)=O)NC(=O)[C@@H]1CCCN1C(=O)[C@H](CO)NC(=O)[C@H](Cc1c[nH]cn1)NC(=O)[C@@H]1CCCN1C(=O)[C@@H]1CCCN1C(=O)[C@@H](N)CO)C(=O)O [16.022]", "Assay Value": 5.51}
{"Compound": "CC(C)C[C@H](NC(=O)[C@H](CC(C)C)NC(=O)[C@H](CC(C)C)NC(=O)[C@@H]1CCCN1C(=O)[C@H](C)N)C(=O)N[C@@H](C)C(=O)N[C@@H](CCCNC(=N)N)C(=O)N[C@@H](C)C(=O)N[C@@H](C)C(=O)O [16.032]", "Assay Value": 8.59}
{"Compound": "CC[C@H](C)[C@H](NC(=O)[C@H](CCC(=O)O)NC(=O)CNC(=O)[C@@H]1CCCN1C(=O)[C@@H](N)CO)C(=O)N[C@@H](CC(N)=O)C(=O)N[C@@H](CCCNC(=N)N)C(=O)N[C@H](C(=O)N[C@@H](C)C(=O)O)C(C)C [16.015]", "Assay Value": 5.55}

====

Subject Of Test: DRB1*1201 (Homo sapiens, UniProt P01903+P01911, A100R/A169T/D57E/D86V/F55L/H45Y/K41T/L162R/M171V/P40S/Q125H/Q178H/Q39Y/Q99D/R42G/S66L/T262R/V114A/V67L/W38E/Y59H/Y61H/Y89S)
Procedure Details: biochemical

{"Compound": "CC[C@H](C)[C@H](NC(=O)[C@H](CO)NC(=O)[C@H](CC(C)C)NC(=O)[C@@H](NC(=O)[C@H](CC(C)C)NC(=O)[C@H](CC(=O)O)NC(=O)[C@H](Cc1c[nH]c2ccccc12)NC(=O)[C@@H](N)CCSC)C(C)C)C(=O)N[C@@H](C)C(=O)N[C@@H](CC(C)C)C(=O)N[C@@H](CO)C(=O)N[C@H](C(=O)NCC(=O)N[C@@H](CS)C(=O)N[C@H](C(=O)O)[C@@H](C)O)C(C)C [Peptide 68.0001]", "IC50 [nM]": 4580}
{"Compound": "CC[C@H](C)[C@H](NC(=O)[C@@H](NC(=O)[C@H](Cc1c[nH]cn1)NC(=O)[C@@H](N)CCCNC(=N)N)C(C)C)C(=O)N[C@@H](Cc1ccc(O)cc1)C(=O)N[C@@H](C)C(=O)N1CCC[C@H]1C(=O)N[C@@H](CO)C(=O)N[C@@H](CO)C(=O)N[C@@H](Cc1c[nH]cn1)C(=O)N[C@@H](CC(N)=O)C(=O)N[C@@H](CCCCN)C(=O)N[C@@H](Cc1ccc(O)cc1)C(=O)N[C@@H](C)C(=O)NCC(=O)O [Peptide 68.0133]", "IC50 [nM]": 7080}
{"Compound": "CC(C)C[C@H](NC(=O)[C@@H]1CCCN1C(=O)[C@H](Cc1c[nH]cn1)NC(=O)[C@@H]1CCCN1C(=O)[C@H](Cc1ccccc1)NC(=O)[C@H](CO)NC(=O)[C@H](Cc1c[nH]cn1)NC(=O)[C@H](CO)NC(=O)[C@@H](NC(=O)[C@H](CCC(N)=O)NC(=O)[C@H](Cc1ccccc1)NC(=O)[C@@H](NC(=O)[C@H](CCC(N)=O)NC(=O)CN)C(C)C)C(C)C)C(=O)N[C@@H](Cc1ccc(O)cc1)C(=O)O [Peptide 68.0069]", "IC50 [nM]": 557}
{"Compound": "CC[C@H](C)[C@H](NC(=O)[C@@H]1CCCN1)C(=O)N[C@@H](CC(C)C)C(=O)N[C@@H](CC(C)C)C(=O)N[C@@H](Cc1c[nH]c2ccccc12)C(=O)N[C@@H](CCC(N)=O)C(=O)N1CCC[C@H]1C(=O)N[C@H](C(=O)N1CCC[C@H]1C(=O)N[C@H](C(=O)N[C@@H](Cc1c[nH]cn1)C(=O)N[C@H](C(=O)N[C@H](C(=O)N1CCC[C@H]1C(=O)N[C@@H](CC(C)C)C(=O)O)C(C)C)[C@@H](C)O)C(C)C)[C@@H](C)CC [Peptide 68.0037]", "IC50 [nM]": 2370}
{"Compound": "CC[C@H](C)[C@H](NC(=O)[C@H](CCC(N)=O)NC(=O)[C@@H](N)CCCNC(=N)N)C(=O)N[C@@H](Cc1ccc(O)cc1)C(=O)N[C@H](C(=O)N[C@@H](C)C(=O)N[C@@H](C)C(=O)N[C@@H](Cc1ccccc1)C(=O)N[C@H](C(=O)N[C@H](C(=O)N[C@@H](CCC(N)=O)C(=O)N[C@@H](C)C(=O)N[C@@H](C)C(=O)N[C@@H](C)C(=O)N[C@@H](CCC(=O)O)C(=O)O)C(C)C)[C@@H](C)O)C(C)C [Peptide 68.0134]", "IC50 [nM]": 609}

====

Subject Of Test: A*6802 (Homo sapiens, UniProt P04439, A269V/D140Y/D185E/E176V/E277Q/E87N/F33Y/G231S/I121R/I166T/I218V/L180W/L300P/L318F/N151K/P208A/P217A/Q86R/R138H/R169H/S129P/T345S/V36M)
Procedure Details: biochemical
Assay type: binding
pIC50: −log10 of the molar value. No end group written: not given here.
Each entry below lists one item and its recorded pIC50 value.

{"Sequence Entry": "ILNDTGFYT [Peptide 9013.0036]", "Modifier Sign": "<", "pIC50": 4.70}
{"Sequence Entry": "FLKGCIISYV [Peptide 1578.43]", "Modifier Sign": "=", "pIC50": 6.10}
{"Sequence Entry": "VLAEAMSHV [Peptide 1516.08]", "Modifier Sign": "=", "pIC50": 6.52}
{"Sequence Entry": "RTLQQLMFI [Peptide 1525.23]", "Modifier Sign": "<", "pIC50": 4.70}
{"Sequence Entry": "ALYSWFVNGT [Peptide 9013.0173]", "Modifier Sign": "<", "pIC50": 4.70}
{"Sequence Entry": "FQYAQLADV [Peptide 1578.36]", "Modifier Sign": "=", "pIC50": 4.77}
{"Sequence Entry": "TVQDVSLEV [Peptide 1593.55]", "Modifier Sign": "=", "pIC50": 7.82}
{"Sequence Entry": "RMLQQLLFV [Peptide 1525.16]", "Modifier Sign": "<", "pIC50": 4.70}
{"Sequence Entry": "FQFQNPFPL [Peptide 1578.40]", "Modifier Sign": "=", "pIC50": 5.50}
{"Sequence Entry": "YVSGANLNL [Peptide 9013.0100]", "Modifier Sign": "=", "pIC50": 6.43}
{"Sequence Entry": "TTQDVSLEV [Peptide 1593.54]", "Modifier Sign": "=", "pIC50": 8.05}
{"Sequence Entry": "FLSYFKLFL [Peptide 1578.37]", "Modifier Sign": "=", "pIC50": 5.32}
{"Sequence Entry": "RLLQQLLFI [Peptide 1525.10]", "Modifier Sign": "<", "pIC50": 4.70}
{"Sequence Entry": "KLLSKLLCV [Peptide 1578.03]", "Modifier Sign": "<", "pIC50": 4.70}
{"Sequence Entry": "GLSAGATVGV [Peptide 9013.0250]", "Modifier Sign": "=", "pIC50": 5.94}
{"Sequence Entry": "GQFRVYPEV [Peptide 9013.0038]", "Modifier Sign": "<", "pIC50": 4.70}
{"Sequence Entry": "RILQQPLFI [Peptide 1545.03]", "Modifier Sign": "<", "pIC50": 4.70}
{"Sequence Entry": "LLIESTPFNVA [Peptide 9013.0268]", "Modifier Sign": "<", "pIC50": 4.70}
{"Sequence Entry": "ILYPNASLLI [Peptide 9013.0145]", "Modifier Sign": "=", "pIC50": 5.51}
{"Sequence Entry": "NLLYGPDDPTI [Peptide 9013.0310]", "Modifier Sign": "<", "pIC50": 4.70}
{"Sequence Entry": "AVAFTCEPEV [Peptide 9013.0155]", "Modifier Sign": "=", "pIC50": 4.87}
{"Sequence Entry": "VQWAYDNEL [Peptide 86.0196]", "Modifier Sign": "<", "pIC50": 4.70}
{"Sequence Entry": "VLEGKEVLLLV [Peptide 9013.0273]", "Modifier Sign": "<", "pIC50": 4.70}
{"Sequence Entry": "KLTFLCVTL [Peptide 1516.14]", "Modifier Sign": "<", "pIC50": 4.70}
{"Sequence Entry": "YTCGIQNSV [Peptide 9013.0096]", "Modifier Sign": "=", "pIC50": 6.85}
{"Sequence Entry": "TLTTITVYA [Peptide 9013.0069]", "Modifier Sign": "=", "pIC50": 8.30}
{"Sequence Entry": "CLAHNSDTGL [Peptide 9013.0191]", "Modifier Sign": "<", "pIC50": 4.70}
{"Sequence Entry": "CQAHNSDTGV [Peptide 9013.0190]", "Modifier Sign": "<", "pIC50": 4.70}
{"Sequence Entry": "ALYWYKTGI [Peptide 86.0176]", "Modifier Sign": "=", "pIC50": 5.48}

Value source: patent US9340577B2
